SYSTEM: human P2Y12 receptor (Homo sapiens, UniProt Q9H244)
Sequence (Q9H244 whole entry): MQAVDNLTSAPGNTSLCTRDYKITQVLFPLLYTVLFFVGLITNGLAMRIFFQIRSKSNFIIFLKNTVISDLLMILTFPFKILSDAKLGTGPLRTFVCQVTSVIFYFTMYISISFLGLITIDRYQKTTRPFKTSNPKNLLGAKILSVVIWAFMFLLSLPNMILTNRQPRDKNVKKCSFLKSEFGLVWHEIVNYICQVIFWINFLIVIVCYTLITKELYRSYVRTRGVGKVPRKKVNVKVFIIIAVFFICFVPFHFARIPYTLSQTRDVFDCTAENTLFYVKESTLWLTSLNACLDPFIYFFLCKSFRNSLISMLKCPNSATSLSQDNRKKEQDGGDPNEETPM
ASSAY_OVERVIEW: Human P2Y12 recombinant cell membrane binding assay
PROTOCOL_CONDITIONS: competition against 33P 2MeS-ADP; membranes of CHO cells with recombinant human P2Y12 receptor; read-out: inhibition MeSADP binding P2Y12, IC 50
pIC50: −log10 of the molar value.
MEASURE: pIC50

Below: 3 molecules and their reported pIC50.
[
  {
    "QUERY_SMILES": "Cc1[nH]c(-c2ccccc2)cc1C(=O)C(=O)N1CCN(c2cccc(C(F)(F)F)c2)CC1",
    "pIC50": 6.30
  },
  {
    "QUERY_SMILES": "Cc1[nH]c(-c2ccccc2)cc1C(=O)C(=O)N1CCC(C(=O)c2cccc(Cl)c2)CC1",
    "pIC50": 6.28
  },
  {
    "QUERY_SMILES": "Cc1[nH]c(-c2ccccc2)cc1C(=O)C(=O)N1CCN(c2ccc(Cl)c(C(F)(F)F)c2)CC1",
    "pIC50": 6.15
  }
]

P: Cc1[nH]c(-c2ccccc2)cc1C(=O)C(=O)N1CCC(C(=O)c2ccc(Br)cc2)CC1
Q: Cc1[nH]c(-c2ccccc2)c(/C=C/C(=O)O)c1C(=O)C(=O)N1CCN(c2cccc(C(F)(F)F)c2)CC1
R: CCOC(=O)c1cccc(N2CCN(C(=O)C(=O)c3cc(-c4ccccc4)[nH]c3C)CC2)c1
Write the entries in order, lowest recorded pIC50 first. List labels; respect the requested ordering.
P, R, Q
